Measured values drawn from ChEMBL document CHEMBL6103560 for this set.

test system: NCI-H292; assay: Antiproliferative activity against YAP-dependent human NCI-H292 cells incubated for 4 days by CyQuant assay; format: functional, cell-based; details: NCI-H292, 96 h
ASSAY ENDPOINT: pIC50
pIC50 here is simply -log10 of the concentration when that concentration is written in mol/L.

Request: For the record `Cn1nc2c3cc(C(=O)N4CC[C@H](O)C4)ccc3n(-c3ccc(C(F)(F)F)cc3)c2n1` , what value of pIC50 is listed for NCI-H292?
Response: 6.52

====

Here, each record is paired with measured IC50 data.
test: Inhibition of TEAD(unknown origin)/YAP protein-protein interaction transfected in human SK-HEP1 cells incubated for 24 hrs by NanoLuc luciferase reporter assay; type: cell-based
Numeric answer only, unit nM assumed.

O=C(O)c1ccc2c(c1)c1c(ncn1-c1ccccn1)n2-c1ccc(C(F)(F)F)cc1    7
CN(C)C(=O)c1ccc2c(c1)c1cn(C)nc1n2-c1ccc(C(F)(F)F)cc1    124
C[C@@H](CO)NC(=O)c1ccc2c(c1)c1nn(C)nc1n2-c1ccc(C(F)(F)F)cc1    39

Request: Would you kindly share the measured IC50 for `Cn1nc2c3cc(C(=O)O)ccc3n(-c3ccc(C(F)(F)F)cc3)c2n1` ?
Response: 1

Request: Same question, `Cn1ccc([C@H](CO)NC(=O)c2ccc3c(c2)c2cn(C)nc2n3-c2ccc(C(F)(F)F)cc2)n1` this time
Response: 38
